Data provenance is ChEMBL document CHEMBL3124929.

# assay-notes: AUC (0 to infinity) in Wistar rat at 0.5 mg/kg, iv by LC-MS/MS analysis
# Type: ADME, organism-based
# Set-up: time infinity, dose 0.5 mg/kg, route intravenous
# measurement-setup: plasma
result-type: AUC(0-inf) (ng·h/mL)

INSERT INTO results (smiles_code, result_type, observed_result) VALUES
  ('CCc1cc(-c2noc(-c3cc(C)nc(C4CCCC4)c3)n2)cc(C)c1OC[C@@H](O)CNC(=O)CO', 'AUC(0-inf)', 566),
  ('CCc1cc(-c2noc(-c3cc(C)nc(C(CC)CC)c3)n2)cc(C)c1OC[C@@H](O)CNC(=O)CO', 'AUC(0-inf)', 69.9);

* * *

# assay-notes: Drug uptake in Wistar rat brain at 10 mg/kg, po after 24 hrs
# Assay type: ADME, organism-based
# Parameters: dose 10 mg/kg, route oral
# measurement-setup: read-out: Drug uptake
Please respond with t when measured concentration at 24 h is strictly beneath 3 ng/mL, and with f in all other cases.

INSERT INTO assay_data (smiles_code, label_value) VALUES
  ('CCc1cc(-c2nc(-c3cc(C)nc(N(CC)CC)c3)no2)cc(C)c1OC[C@@H](O)CNC(=O)CO', 'f'),
  ('CCc1cc(-c2noc(-c3cc(C)nc(N(CC)CC)c3)n2)cc(C)c1OC[C@@H](O)CNC(=O)CO', 'f'),
  ('CCc1cc(-c2noc(-c3cc(C)nc(N(CC)CC)c3)n2)cc(C)c1OC[C@@H](O)CO', 'f'),
  ('CCc1cc(-c2nnc(-c3cc(C)nc(N(CC)CC)c3)o2)cc(C)c1OC[C@@H](O)CO', 't');

* * *

# assay-notes: Cmax in cynomolgus monkey at 1 mg/kg, po by LC-MS/MS analysis
# Format: ADME, organism-based, Macaca fascicularis
# Design: dose 1 mg/kg, route oral
# measurement-setup: in vivo
result-type: Cmax (ng/mL)

INSERT INTO assay_data (smiles_code, unit_of_measure, observed_result) VALUES
  ('CCc1cc(-c2noc(-c3cc(C)nc(N(CC)CC)c3)n2)cc(C)c1OC[C@@H](O)CNC(=O)CO', 'ng/mL', 97);

* * *

# assay-notes: Tmax in cynomolgus monkey at 1 mg/kg, po by LC-MS/MS analysis
# Type: ADME, organism-based, Macaca fascicularis
# Set-up: dose 1 mg/kg, route oral
# measurement-setup: in vivo
result-type: Tmax (h)

INSERT INTO results (smiles_code, observed_result) VALUES
  ('CCc1cc(-c2noc(-c3cc(C)nc(N(CC)CC)c3)n2)cc(C)c1OC[C@@H](O)CNC(=O)CO', 2);

* * *

# assay-notes: AUC (0 to 24 hrs) in cynomolgus monkey at 1 mg/kg, po by LC-MS/MS analysis
# Format: ADME, organism-based, Macaca fascicularis
# Parameters: time < 24 hr, dose 1 mg/kg, route oral
# measurement-setup: plasma
result-type: AUC(0-t) at 24 h (ng·h/mL)

INSERT INTO results (smiles_code, result_type, observed_result) VALUES
  ('CCc1cc(-c2noc(-c3cc(C)nc(N(CC)CC)c3)n2)cc(C)c1OC[C@@H](O)CNC(=O)CO', 'AUC(0-t) at 24 h', 866);

* * *

# assay-notes: Cmax in Beagle dog at 3 mg/kg, po by LC-MS/MS analysis
# Type: ADME, organism-based, Canis lupus familiaris
# Parameters: dose 3 mg/kg, route oral
# measurement-setup: in vivo
result-type: Cmax (ng/mL)

INSERT INTO assay_data (smiles_code, observed_result) VALUES
  ('CCc1cc(-c2noc(-c3cc(C)nc(N(CC)CC)c3)n2)cc(C)c1OC[C@@H](O)CNC(=O)CO', 546);

* * *

# assay-notes: Oral bioavailability in Beagle dog at 3 mg/kg by LC-MS/MS analysis
# Type: ADME, organism-based, Canis lupus familiaris
# measurement-setup: in vivo
result-type: bioavailability (%)

INSERT INTO results (smiles_code, observed_result) VALUES
  ('CCc1cc(-c2noc(-c3cc(C)nc(N(CC)CC)c3)n2)cc(C)c1OC[C@@H](O)CNC(=O)CO', 32);

* * *

# assay-notes: Tmax in Wistar rat plasma at 10 mg/kg, po
# Format: ADME, organism-based
# Design: dose 10 mg/kg, route oral
result-type: Tmax (h)

INSERT INTO results (smiles_code, result_type, unit_of_measure, observed_result) VALUES
  ('CCc1cc(-c2noc(-c3cc(C)nc(N(CC)CC)c3)n2)cc(C)c1OC[C@@H](O)CNC(=O)CO', 'Tmax', 'h', 2);

* * *

# assay-notes: Plasma concentration in Wistar rat at 10 mg/kg, po after 2 hrs
# Format: ADME, organism-based
# Set-up: dose 10 mg/kg, route oral
Measured concentration at 2 h values are reported for all entries that follow.
result-type: concentration at 2 h (ng/mL)

INSERT INTO assay_data (smiles_code, observed_result) VALUES
  ('CCc1cc(-c2noc(-c3cc(C)nc(N(CC)CC)c3)n2)cc(C)c1OC[C@@H](O)CO', 608),
  ('CCc1cc(-c2noc(-c3cc(C)nc(N(CC)CC)c3)n2)cc(C)c1OC[C@@H](O)CNC(=O)CO', 2170),
  ('CCc1cc(-c2nnc(-c3cc(C)nc(N(CC)CC)c3)o2)cc(C)c1OC[C@@H](O)CO', 820),
  ('CCc1cc(-c2nnc(-c3cc(C)nc(N(CC)CC)c3)o2)cc(C)c1OC[C@@H](O)CNC(=O)CO', 815),
  ('CCc1cc(-c2nc(-c3cc(C)nc(N(CC)CC)c3)no2)cc(C)c1OC[C@@H](O)CNC(=O)CO', 875);

* * *

# assay-notes: Plasma concentration in Wistar rat at 10 mg/kg, po after 24 hrs
# Format: ADME, organism-based
# Set-up: dose 10 mg/kg, route oral
result-type: concentration at 24 h (nM)

INSERT INTO results (smiles_code, observed_result) VALUES
  ('CCc1cc(-c2noc(-c3cc(C)c(C4CCCC4)cn3)n2)cc(C)c1OC[C@@H](O)CNC(=O)CO', 800),
  ('CCc1cc(-c2noc(-c3cc(C4CCCC4)cc(C)n3)n2)cc(C)c1OC[C@@H](O)CNC(=O)CO', 9);

* * *

# assay-notes: Oral bioavailability in cynomolgus monkey at 1 mg/kg by LC-MS/MS analysis
# Type: ADME, organism-based, Macaca fascicularis
# measurement-setup: in vivo
result-type: bioavailability (%)

INSERT INTO results (smiles_code, observed_result) VALUES
  ('CCc1cc(-c2noc(-c3cc(C)nc(N(CC)CC)c3)n2)cc(C)c1OC[C@@H](O)CNC(=O)CO', 16);

* * *

# assay-notes: Cmax in Wistar rat at 10 mg/kg, po by LC-MS/MS analysis
# Type: ADME, organism-based
# Design: dose 10 mg/kg, route oral
# measurement-setup: in vivo
Entries and their Cmax values follow.
result-type: Cmax

INSERT INTO assay_data (smiles_code, observed_result) VALUES
  ('CCc1cc(-c2noc(-c3cc(C)nc(N(CC)CC)c3)n2)cc(C)c1OC[C@@H](O)CNC(=O)CO', '1090 ng/mL'),
  ('CCc1cc(-c2noc(-c3cc(C)nc(C(CC)CC)c3)n2)cc(C)c1OC[C@@H](O)CNC(=O)CO', '804 ng/mL');

* * *

# assay-notes: Volume of distribution at steady state in Wistar rat at 0.5 mg/kg, iv by LC-MS/MS analysis
# Format: ADME, organism-based
# Parameters: dose 0.5 mg/kg, route intravenous
# measurement-setup: in vivo, read-out: Vdss
The following molecules are shown together with reported Vd values.
result-type: Vd (L/kg)

INSERT INTO assay_data (smiles_code, observed_result) VALUES
  ('CCc1cc(-c2noc(-c3cc(C)nc(C(CC)CC)c3)n2)cc(C)c1OC[C@@H](O)CNC(=O)CO', 3.4),
  ('CCc1cc(-c2noc(-c3cc(C)nc(C4CCCC4)c3)n2)cc(C)c1OC[C@@H](O)CNC(=O)CO', 7.3);

* * *

# assay-notes: AUC (0 to infinity) in Beagle dog at 1 mg/kg, iv by LC-MS/MS analysis
# Format: ADME, organism-based, Canis lupus familiaris
# Design: time infinity, dose 1 mg/kg, route intravenous
# measurement-setup: plasma
result-type: AUC(0-inf) (ng·h/mL)

INSERT INTO results (smiles_code, observed_result) VALUES
  ('CCc1cc(-c2noc(-c3cc(C)nc(N(CC)CC)c3)n2)cc(C)c1OC[C@@H](O)CNC(=O)CO', 3350);

* * *

# assay-notes: Drug uptake in Wistar rat brain at 10 mg/kg, po after 6 hrs
# Assay type: ADME, organism-based
# Parameters: dose 10 mg/kg, route oral
# measurement-setup: read-out: Drug uptake
Threshold 300 ng/mL: concentration at 6 h strictly smaller gives yes (1), otherwise no (0).

INSERT INTO assay_data (smiles_code, label_value) VALUES
  ('CCc1cc(-c2nc(-c3cc(C)nc(N(CC)CC)c3)no2)cc(C)c1OC[C@@H](O)CNC(=O)CO', 'no (0)'),
  ('CCc1cc(-c2noc(-c3cc(C)nc(N(CC)CC)c3)n2)cc(C)c1OC[C@@H](O)CO', 'yes (1)'),
  ('CCc1cc(-c2noc(-c3cc(C)nc(N(CC)CC)c3)n2)cc(C)c1OC[C@@H](O)CNC(=O)CO', 'no (0)'),
  ('CCc1cc(-c2nnc(-c3cc(C)nc(N(CC)CC)c3)o2)cc(C)c1OC[C@@H](O)CNC(=O)CO', 'yes (1)'),
  ('CCc1cc(-c2nnc(-c3cc(C)nc(N(CC)CC)c3)o2)cc(C)c1OC[C@@H](O)CO', 'yes (1)');
